Recorded values, source patent US4289765A.

Entries and their LD50 at 168 h values follow.
assay: in vivo; settings: mouse, ip

As a guide, the following entries are already answered.
Compound: COc1ccc(CNc2cc(C)nc(C)c2[N+](=O)[O-])cc1
Endpoint Result: > 600 mg/kg
--
Compound: Cc1cc(NCc2ccc(S(N)(=O)=O)cc2)c([N+](=O)[O-])c(C)n1
Endpoint Result: 600 to 1200 mg/kg
--
Compound: Cc1cc(N2CCOCC2)c([N+](=O)[O-])c(C)n1
Endpoint Result: 300 to 1000 mg/kg

// lookup LD50 at 168 h for Cc1cc(N2CCSC(C)C2)c([N+](=O)[O-])c(C)n1 (stereo not shown)
150 to 300 mg/kg

// lookup LD50 at 168 h for Cc1cc(N2CCSCC2)c([N+](=O)[O-])c(C)n1
160 mg/kg

// lookup LD50 at 168 h for Cc1cc(NCCF)c([N+](=O)[O-])c(C)n1
150 to 300 mg/kg

// lookup LD50 at 168 h for Cc1cc(NCCCl)c([N+](=O)[O-])c(C)n1
150 to 300 mg/kg

// lookup LD50 at 168 h for CCCc1cc(N2CCSCC2)c([N+](=O)[O-])c(CCC)n1
300 to 600 mg/kg

// lookup LD50 at 168 h for COC(CNc1cc(C)nc(C)c1[N+](=O)[O-])OC
400 to 800 mg/kg

// lookup LD50 at 168 h for Cc1cc(N2CCSCC2)c(C#N)c(C)n1
150 to 300 mg/kg
